# Tested on: rodent lifetime carcinogenesis bioassay, tumor incidence TD50
# assayComment: carcinogenic potency in animals, long-term in vivo studies, CPDB compilation (AID 1745844)
# testConditions: rat; strain Sprague-Dawley; males; inhaled; site: brain; lesion: neuroblastoma; dosed 52 weeks; study length 131 weeks
observable: TD50

- givenSmiles: "C=CCl"
  observable: "TD50"
  measurement: "4580 mg/kg/day"

* * *

# System: rodent lifetime carcinogenesis bioassay, tumor incidence TD50
# assayComment: carcinogenic potency in animals, long-term in vivo studies, CPDB compilation (AID 1745844)
# testConditions: rat; strain Fischer 344; males; in feed; site: brain + brain stem; lesion: glioma, NOS; dosed 104 weeks; study length 105 weeks
observable: TD50 (mg/kg/day)

- givenSmiles: "COc1ccc(C)cc1N"
  quantityUnit: "mg/kg/day"
  measurement: 3510

* * *

# Tested on: rodent lifetime carcinogenesis bioassay, tumor incidence TD50
# assayComment: carcinogenic potency in animals, long-term in vivo studies, CPDB compilation (AID 1745844)
# testConditions: rat; strain Fischer 344; males; by gavage; site: forestomach; lesion: squamous-cell carcinoma + squamous-cell papilloma; dosed 103 weeks; study length 104 weeks

- compound: "c1cc(OCC2CO2)cc(OCC2CO2)c1 (stereo unspecified)"
  TD50 (mg/kg/day): 2.33

* * *

# System: rodent lifetime carcinogenesis bioassay, tumor incidence TD50
# assayComment: carcinogenic potency in animals, long-term in vivo studies, CPDB compilation (AID 1745844)
# testConditions: mouse; strain B6AKF1; females; oral dosing; site: Harderian gland; lesion: adenoma; dosed 73 weeks; study length 73 weeks

- givenSmiles: "CCOC(N)=O"
  TD50 / mg/kg/day: 59.7

* * *

# Test system: rodent lifetime carcinogenesis bioassay, tumor incidence TD50
# assayComment: carcinogenic potency in animals, long-term in vivo studies, CPDB compilation (AID 1745844)
# testConditions: hamster; strain Syrian Golden; males; by gavage; site: liver; lesion: several types; types named in the paper; dosed 50 weeks; study length 85 weeks
observable: TD50

- givenSmiles: "O=NN1CCC1"
  observable: "TD50"
  measurement: "7.14 mg/kg/day"

* * *

# Tested on: rodent lifetime carcinogenesis bioassay, tumor incidence TD50
# assayComment: carcinogenic potency in animals, long-term in vivo studies, CPDB compilation (AID 1745844)
# testConditions: mouse; strain B6C3F1; males; in feed; site: forestomach; lesion: several types; types named in the paper; dosed 96 weeks; study length 96 weeks
observable: TD50

- givenSmiles: "O=C(O)C=Cc1ccc(O)c(O)c1"
  measurement: "5270 mg/kg/day"

* * *

# Tested on: rodent lifetime carcinogenesis bioassay, tumor incidence TD50
# assayComment: carcinogenic potency in animals, long-term in vivo studies, CPDB compilation (AID 1745844)
# testConditions: rat; strain Fischer 344; males; in feed; site: urinary bladder; lesion: leiomyosarcoma; dosed 103 weeks; study length 104 weeks

- givenSmiles: "Nc1ccc(N)c2c1C(=O)c1c(N)ccc(N)c1C2=O"
  targetUnderTest: "rodent lifetime carcinogenesis bioassay, tumor incidence TD50"
  TD50: "131 mg/kg/day"

* * *

# Test system: rodent lifetime carcinogenesis bioassay, tumor incidence TD50
# assayComment: carcinogenic potency in animals, long-term in vivo studies, CPDB compilation (AID 1745844)
# testConditions: mouse; strain C57BL/6; males; in feed; site: liver; lesion: malignant lymphoma, histiocytic type; dosed 52 weeks; study length 69 weeks
observable: TD50 (mg/kg/day)

- givenSmiles: "CCCCCC(N)=O"
  quantityUnit: "mg/kg/day"
  measurement: 25300
